Reference for the values: the RNAGym collection of RNA variant scans (doi:10.1101/gad.245936.114)

B1: tRNA (parent)
chain: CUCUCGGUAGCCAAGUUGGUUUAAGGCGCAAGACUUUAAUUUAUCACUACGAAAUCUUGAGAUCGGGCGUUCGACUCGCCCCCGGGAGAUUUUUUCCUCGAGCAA

- Variants of: B1
- assay.procedure: nonsense suppression (GFP-seq) (ratio to wild type); higher = more function; SUP4oc tRNA, yeast GFP reporter sort-seq
This sample holds only a part of the variants without activity.
Please respond with reported nonsense suppression for every item in the list.

What measured nonsense suppression goes with `CUCUCGGUUGCCAAGUUGGUUUAAGGCGCAAGACUUUAAUUUAUCACUACGAAAUCUUGAGAUCGGGCGUUCGACUCGCCACCGGGAGAUUUUUUCCUCGAGCAA` ? ≤ 0.026

What measured nonsense suppression goes with `CCCUCGGUAGCCAAGUUCGUUUAAUGCGCAAGACUUUAAUUUAUCACUACGAACUCCUGAUAUCGGGCGGUCGACUCGCCCCCGGGAGAUUUUUUCCUCGAGCAA` ? ≤ 0.026

What measured nonsense suppression goes with `CUCUCGGUAGCCAAGUUGGUUUAAGUCGCAAGACUUUAAUUUAUCACUACGAAAUCUUGAGAUCCGGCGUACGACUCUCCCCCGGGAGAUUUUUUCCUCGAGCAA` ? ≤ 0.026

What measured nonsense suppression goes with `CUCUCGGUAGCCAAGUUGGUUUAAGGCGGAAGACUUUAAUUUAUCACUACGAAAUCUAGAGAUCGGGCGUUCGACUCGCCCCCGGGAGAUUUUUUCCUCGAGCAA` ? ≤ 0.026

What measured nonsense suppression goes with `AUCUCGGUAGCCAAGUGGGGUUAAGGCGCAAGACUUUAAUUUAUCACUACGAAAUCUUGAGAUCGGGCGUUCGACUCGCCCCCGGGAGAUUUUUUCCUCGAGCAA` ? ≤ 0.026

What measured nonsense suppression goes with `CUCUCGGUAGCCAAGUUGGUUUAAGGCGCAAGAGUUUAAUUUAUCACUACGAAAUCUUGACAUCGGGCGUUCGACUCGCCCCCGGGAGAUUUUUUCCUCGAGCAA` ? ≤ 0.026

What measured nonsense suppression goes with `CUCACGUUAGCCAAGUUGGUUUAAGGCGCAAGACUUUAAUUUAUCACUACGAAAUCUUGAGAUCGGGCGUUCGACACGCCCCCGGGAGAUUUUUUCCUCGAGCAA` ? ≤ 0.026

What measured nonsense suppression goes with `CUCUCGGUAGCCAAGUUGGUUUAAGGCGCAAGACUUUAAUUUAUCACUACGAAAUCUCGAUACCGGGCGUUCGACUCGCCCCCGGGAGAUUUUUUCCUCGAGCAA` ? ≤ 0.026

What measured nonsense suppression goes with `CUCUCGGUAGCCAAGUUGGUUUAAGGCGCAAGACUUUAAUUUAUCACUACGAAAUCUUGAGAUCGGGCGUUCGACUUGACCCAGGGAGAUUUUUUCCUCGAGCAA` ? ≤ 0.026

What measured nonsense suppression goes with `CUCUCGGUACCCAAGUUGGUUUAAGGCGCAAGACUUUAAUUUAUCACUACGAAAUCUUGAGAUCGGGCGUUCGACUUGCCCCCGGGAGAUUUUUUCCUCGAGCAA` ? ≤ 0.026

What measured nonsense suppression goes with `CUCUCGGUAGCCAAGUUGGUUUAAGGCGCAAGACUUUAAUUUAUCACUACGAAAUCUUGAGAUCGGGCGUUCGACUCGACCCCGGGCGAUUUUUUCCUCGAGCAA` ? ≤ 0.026

What measured nonsense suppression goes with `CUCUCGGUAGCCAAGUUGGUUUAAGGCGUACGACUUUAAUUUAUCACUACGAAAUCUUGAGAUCGGGUGUUCGACUAGCCCCCGGGAGAUUUUUUCCUCGAGCAA` ? ≤ 0.026

What measured nonsense suppression goes with `CUCUCGGUAGCCAAGGUGGUUUAACGCGCAAGACUUUAAUUUAUCACUACGAAAGCUUGAGAUCGGGCGUUCGACUCGCCCCCGGGAGAUUUUUUCCUCGAGCAA` ? ≤ 0.026

What measured nonsense suppression goes with `CUCUCGGUAGCCAAGUUGGUUUAAGGCGCAGGACUUUAAUUUAUCACUACGAAAUCUUGAGAUCGGGCGUGCGACUCGCCCCCGGGAGAUUUUUUCCUCGAGCAA` ? ≤ 0.026

What measured nonsense suppression goes with `CUCUCGGUAGCCAUGUUGGUUUGAGGCGCAAGACUUUAAUUUAUCACUACGAAAUCUUGAGUUCGGGCGUUCGACUCGCCCCCAGGAGAUUUUUUCCUCGAGCAA` ? ≤ 0.026

What measured nonsense suppression goes with `CUCUCGGUAGCCAAGUUGGUUUGAGGCGCAAGACUUUAAUUUAUCACUACGAAAUAUUGAGAUGGGGCGUUCGCCUCGCCCCCGGGAGAUUUUUUCCUCGAGCAA` ? ≤ 0.026

What measured nonsense suppression goes with `CUCUCGGUAGCAAAGUUGGUUUAACGCGCAAGACUUUAAUUUAUCACUACGAAAUCUUGAGAUCGGGGGUUCGACUCGCCCCCGGGAGAUUUUUUCCUCGAGCAA` ? ≤ 0.026

What measured nonsense suppression goes with `CUCUCGGUAGCGAAGUCGGUGUAAGGCGCAAGACUUUAAUUUAUCACUACGAAAUCUUGAGAUCGGGCGUUCGACUCGCCCCCGGGAGAUUUUUUCCUCGAGCAA` ? ≤ 0.026

What measured nonsense suppression goes with `CUCUCGGUAGCCAAGUUGGUUUAAGGCGCAAGACUUUAAUUUAUCACUACGAAAUCUCGAAAUCGGGCGUUCGACUCGCCCCCGGGAGAUUUUUUCCUCGAGCAA` ? 0.0586

What measured nonsense suppression goes with `CUCUCGGUAGCCAAGUUGGUUUAAGGCGCAAGACUUUAAUUUAUCACUACGAAAUCAUGAGAUCGGGCGUUCGACUCGCCCCCGGGAGAUUUUUUCCUCGAGCAA` ? 0.0873

What measured nonsense suppression goes with `CUCUCGGUAGCCAAGGUGGUUUAAGGGGCAAGACUUUAAUUUAUCACUACGAAAUCUUGAGAUCGGGCGUUCGACUCGCCCCCGGGAGAUUUUUUCCUCGAGCAA` ? ≤ 0.026

What measured nonsense suppression goes with `AUCUGGGUAGCCGAGUUCGUUUAAGGCGCAAGACUUUAAUUUAUCACUACGAAUUCUUGAGAUCCGGCGUUCGACUCGCCCCCGGGAGAUUUUUUCCUCGAGCAA` ? ≤ 0.026

What measured nonsense suppression goes with `CUCUCGGUAGCUAAGUUGGUUUCAGGCGCAAGACUUUAAUUUAUCACUACGAAAUCUUGAGAUCGGGCGUUCGACUCCCCCCCGGGAGAUUUUUUCCUCGAGCAA` ? ≤ 0.026

What measured nonsense suppression goes with `CUCUCGGUAGCCAAGUUGGUUUAAGGCGCAAGACUUUAAUUUAUCACUACGAAAUCUUGUGAUCGGACGUUCGACUCGCCCCCGGGAGAUUUUUUCCUCGAGCAA` ? 0.0457

What measured nonsense suppression goes with `CUCUCGGUAGCCAAGUUGGUUUAAGGCGCAAGACUUUAAUUUAUCACUACGAAAACUUGAGAUCGGUCGUUCGACUCGCCCCCGGGAGAUUUUUUCCUCGAGCAA` ? ≤ 0.026

What measured nonsense suppression goes with `CUCUCGGUAGCCAAGUUGGUUUAUGGCGCAAGACUUUAAUUUAUCACUACGAAAUCUUGAGAUCGGGCGUUCGACUCGCCCUCGGGAGAUUUUUUCCUCGAGCAA` ? 0.0571

What measured nonsense suppression goes with `CUCUCGGUAGCCAAGUGGGUUUAAGGCGCAAGACUUUAAUUUAUCACUACGAAAUCUUGAUAUCGGGCGUUCGACUCGCCCCCGGGAGAUUUUUUCCUCGAGCAA` ? 0.832

What measured nonsense suppression goes with `CUCGCGGUAGCCAAGUUGGUUUAAGGCGCAAGACUUUAAUUUAUCACUACGAAAUCUUGAGAUCGGGCGUUGGACUCGCCCCCGGGAGAUUUUUUCCUCGAGCAA` ? 0.0909

What measured nonsense suppression goes with `CUCGCGGUAGCCAAGUUGGUUUAAGGCGCAAGACUUUAAUUUAUCACUACGAAAUCGUGUGAUCGGGCGUUCGACUCGCCCCCGGGAGAUUUUUUCCUCGAGCAA` ? ≤ 0.026

What measured nonsense suppression goes with `CUCUCGGUAGCCAAGUUGGUUUAAGGCGCAAGACUUUAAUUUAUCACUACGAAAUCUUGAGAUCGCGCGUUCGACUCGCCCUCGGGAGAUUUUUUCCUCGAGCAA` ? ≤ 0.026

What measured nonsense suppression goes with `CUCUCGGUAGCCAAGUUGGGUUAAGGCGCAAGACUUUAAUUUAUCACUACGAAAUCUUGACAUCGGGCGUUCGACUCGCCCCCGGGAGAUUUUUUCCUCGAGCAA` ? 0.615
